# TARGET UNDER TEST: PDE (phosphodiesterase-3)
# EXPERIMENT NOTES: Radioligand binding, cardiovascular-related targets
# TEST PARAMETERS: antagonism of radioligand binding; read-out: IC50 or EC50
OBSERVATION TYPE: IC50

Recall the reported IC50 of N#C[C@@H]1C[C@@H]2C[C@@H]2N1C(=O)[C@@H](N)C12CC3CC(CC(O)(C3)C1)C2 [saxagliptin] on PDE (phosphodiesterase-3) and write it down.
> 30 µM

----------
# TARGET UNDER TEST: UniProt:Q14524
# Sequence (Q14524 whole entry): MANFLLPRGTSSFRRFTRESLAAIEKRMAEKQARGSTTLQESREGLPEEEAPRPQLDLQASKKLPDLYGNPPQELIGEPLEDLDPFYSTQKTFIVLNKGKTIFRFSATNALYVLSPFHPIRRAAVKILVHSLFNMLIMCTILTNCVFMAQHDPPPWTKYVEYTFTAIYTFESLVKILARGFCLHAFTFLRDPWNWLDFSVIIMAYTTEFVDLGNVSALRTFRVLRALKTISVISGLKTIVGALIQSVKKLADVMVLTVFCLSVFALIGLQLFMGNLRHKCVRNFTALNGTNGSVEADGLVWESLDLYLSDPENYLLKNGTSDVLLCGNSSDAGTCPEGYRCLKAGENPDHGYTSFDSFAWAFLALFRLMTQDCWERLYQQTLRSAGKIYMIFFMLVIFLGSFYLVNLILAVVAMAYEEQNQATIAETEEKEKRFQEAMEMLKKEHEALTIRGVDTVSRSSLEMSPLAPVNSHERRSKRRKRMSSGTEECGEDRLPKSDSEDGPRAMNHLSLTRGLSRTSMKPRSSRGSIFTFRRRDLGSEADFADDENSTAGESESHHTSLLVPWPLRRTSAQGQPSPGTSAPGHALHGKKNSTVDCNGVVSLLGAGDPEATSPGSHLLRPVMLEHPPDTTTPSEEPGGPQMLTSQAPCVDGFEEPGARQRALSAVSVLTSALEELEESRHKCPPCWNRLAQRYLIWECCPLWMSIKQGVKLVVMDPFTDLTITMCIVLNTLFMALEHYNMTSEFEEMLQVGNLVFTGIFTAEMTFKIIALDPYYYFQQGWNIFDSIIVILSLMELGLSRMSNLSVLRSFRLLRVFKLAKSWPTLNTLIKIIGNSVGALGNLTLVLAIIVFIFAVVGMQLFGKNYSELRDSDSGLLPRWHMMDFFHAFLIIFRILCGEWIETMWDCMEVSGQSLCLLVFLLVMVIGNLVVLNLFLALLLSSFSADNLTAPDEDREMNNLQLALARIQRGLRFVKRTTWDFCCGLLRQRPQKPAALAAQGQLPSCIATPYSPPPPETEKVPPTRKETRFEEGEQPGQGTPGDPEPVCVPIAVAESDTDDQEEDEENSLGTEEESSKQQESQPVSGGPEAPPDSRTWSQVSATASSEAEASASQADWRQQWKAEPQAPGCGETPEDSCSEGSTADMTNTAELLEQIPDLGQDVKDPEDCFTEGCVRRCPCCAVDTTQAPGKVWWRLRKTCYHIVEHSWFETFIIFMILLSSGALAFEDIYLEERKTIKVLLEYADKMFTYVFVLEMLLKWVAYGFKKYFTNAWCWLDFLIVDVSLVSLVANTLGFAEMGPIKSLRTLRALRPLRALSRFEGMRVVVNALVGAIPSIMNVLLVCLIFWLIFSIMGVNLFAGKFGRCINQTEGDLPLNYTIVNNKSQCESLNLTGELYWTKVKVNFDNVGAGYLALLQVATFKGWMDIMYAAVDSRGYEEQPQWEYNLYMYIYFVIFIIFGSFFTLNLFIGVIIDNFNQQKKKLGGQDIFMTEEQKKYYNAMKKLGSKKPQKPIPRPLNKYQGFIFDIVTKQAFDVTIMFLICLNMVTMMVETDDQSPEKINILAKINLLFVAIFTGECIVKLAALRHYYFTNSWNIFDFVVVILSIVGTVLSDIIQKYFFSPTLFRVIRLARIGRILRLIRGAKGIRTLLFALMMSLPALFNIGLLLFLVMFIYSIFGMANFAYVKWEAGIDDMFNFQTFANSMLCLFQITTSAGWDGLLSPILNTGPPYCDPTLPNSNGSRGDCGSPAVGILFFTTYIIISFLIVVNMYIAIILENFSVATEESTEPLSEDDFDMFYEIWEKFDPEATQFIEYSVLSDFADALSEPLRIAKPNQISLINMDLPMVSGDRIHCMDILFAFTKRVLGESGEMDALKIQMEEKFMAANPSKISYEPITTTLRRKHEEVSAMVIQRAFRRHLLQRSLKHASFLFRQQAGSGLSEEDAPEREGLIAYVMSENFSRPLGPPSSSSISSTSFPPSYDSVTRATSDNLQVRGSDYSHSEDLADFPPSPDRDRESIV
pIC50: −log10 of the molar value.
OBSERVATION TYPE: pIC50

Name the recorded pIC50 of `N#C[C@@H]1C[C@@H]2C[C@@H]2N1C(=O)[C@@H](N)C12CC3CC(CC(O)(C3)C1)C2` , assay system UniProt:Q14524.
< 4.52
